Tested on: Acinetobacter baumannii T6474
Assay: Bacterial growth minimal inhibitory concentration (broth microdilution, CLSI M7-A7)
Type: cell-based
Details: Acinetobacter baumannii, T6474; cation-adjusted Mueller-Hinton Broth, microdilution; multiply-resistant (quinolone-resistant) strain; read-out: MIC for A. Baumannii T6474
Experimental: Minimal Inhibitory Concentrations (MICs; mg/L) were determined in cation-adjusted Mueller-Hinton Broth by a microdilution method following the description given in “Methods for Dilution Antimicrobial Susceptibility Tests for Bacteria that Grow Aerobically”, Approved standard, 7th ed., Clinical and Laboratory Standards Institute (CLSI) Document M7-A7, Wayne, Pa., USA (2006). […]
Sorting guide: entries reporting MIC beneath 2 µg/mL go in the Criterion met pile, the rest go in the Criterion not met pile.

• COc1ccc(-c2cc3cn(CC[C@](C)(C(=O)NO)S(C)(=O)=O)nc3cc2F)cc1 = Criterion met
• CC#CCOc1ccc2nn(CCC(C)(C(=O)NO)S(C)(=O)=O)cc2c1 (racemic) = Criterion not met
• C[C@@](CCn1cc2cc(C#Cc3ccc(C4(CO)CC4)cc3)ccc2n1)(C(=O)NO)S(C)(=O)=O = Criterion met
• C[C@@](CCn1cc2cc(C#Cc3ccc([C@H](O)CO)cc3)ccc2n1)(C(=O)NO)S(C)(=O)=O = Criterion met
• CC(CCn1cc2cc(C#Cc3ccc(C4(O)COC4)cc3)c(F)cc2n1)(C(=O)NO)S(C)(=O)=O (stereo not drawn) = Criterion met

Kindly review the next molecule as well.
I'd appreciate it if you could check whether C[C@@](CCn1cc2cc(-c3ccc(OC(F)(F)F)cc3)ccc2n1)(C(=O)NO)S(C)(=O)=O has MIC smaller than 2 µg/mL. Criterion met

Origin of the recorded values: patent US9802901B2
